# subject of test: Melanin-concentrating hormone receptor 1 (Homo sapiens, UniProt Q99705)
# Sequence (Q99705 whole entry): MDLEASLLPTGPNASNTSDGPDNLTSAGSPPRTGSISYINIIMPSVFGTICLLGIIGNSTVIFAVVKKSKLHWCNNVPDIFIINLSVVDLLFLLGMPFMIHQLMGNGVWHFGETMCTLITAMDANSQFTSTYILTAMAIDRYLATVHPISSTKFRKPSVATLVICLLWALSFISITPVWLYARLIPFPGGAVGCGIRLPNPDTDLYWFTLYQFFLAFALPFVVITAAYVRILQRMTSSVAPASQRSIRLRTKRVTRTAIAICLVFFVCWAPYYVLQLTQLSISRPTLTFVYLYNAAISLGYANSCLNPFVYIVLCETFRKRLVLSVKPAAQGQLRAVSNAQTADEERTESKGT
# assay notes: Functional antagonism of MCH-R1 expressed in HEK293 cells
# T = IC50 below 800 nM (exclusive); F = IC50 at/above 800 nM

Please review the entries below; each comes with its answer.
N=C(N)NCCC[C@@H](NC(=O)Cc1cc2ccccc2[nH]1)C(=O)NCc1ccc(C(F)(F)F)cc1
T
N=C(N)NCCC[C@@H](NC(=O)C1c2ccccc2Cc2ccccc21)C(=O)NCc1ccc(C(F)(F)F)cc1
T
N=C(N)NCCC[C@@H](NC(=O)c1cc2ccccc2cn1)C(=O)NCc1ccc(C(F)(F)F)cc1
F

Report whether reported IC50 is lower than 800 nM (strictly) for N=C(N)NCCC[C@@H](NC(=O)Cc1cccc2ccccc12)C(=O)NCc1ccc(C(F)(F)F)cc1 T

Determine whether this compound shows IC50 lower than 800 nM (ties excluded): N=C(N)NCCC[C@@H](NC(=O)c1ccc2ccccc2n1)C(=O)NCc1ccc(C(F)(F)F)cc1 F

Field: below-cutoff. Rule: recorded IC50 strictly less than 800 nM. Subject: N=C(N)NCCC[C@@H](NC(=O)c1ccc2ccccc2c1)C(=O)NCc1ccc(C(F)(F)F)cc1 T

Where do these numbers come from? They come from ChEMBL document CHEMBL1137587.
